Biological target: human androgen receptor (Homo sapiens, UniProt P10275)
Construct: expressed in transfected cells; host or cells: CHO cells, cell line CHO-AR-pMMTV-LUC 1G12-A5-CA
Experiment: androgenic activity (EC50, potency, efficacy), transactivation bioassay in CHO-AR-pMMTV-LUC cells in the presence of 0.1 μmol/l onapristone (Table 5)
Format: cell-based
Conditions: potency expressed as percentage of DHT activity; CHO-AR-pMMTV-LUC cells; in the presence of 0.1 μmol/l onapristone
Description: The androgenic activity (EC50, potency, and efficacy) of the compounds in Table 5 was determined in an in vitro bioassay of Chinese hamster ovary (CHO) cells stably transfected with the human androgen receptor expression plasmid and a reporter plasmid in which the MMTV promoter is linked to the luciferase reporter gene. […] The androgen receptor activity of compounds was determined in the presence of 0.1 μmol/l onapristone. […] The potencies are expressed as percentage of DHT activity.
Measurement Label: ago potency

(Q) Name the recorded ago potency for COc1ccc2c(Sc3ccccc3[N+](=O)[O-])cn(Cc3cnccn3)c2c1 .
(A) + (between 1% and 5%)

(Q) Tell me the measured ago potency of CS(=O)(=O)Nc1ccc2c(Sc3ccccc3[N+](=O)[O-])cn(Cc3cc(F)cc(F)c3)c2c1 , please.
(A) + (between 1% and 5%)

(Q) Tell me the measured ago potency of O=C(CF)Nc1ccc2c(Sc3ccccc3[N+](=O)[O-])cn(Cc3cc(F)cc(F)c3)c2c1 , please.
(A) + (between 1% and 5%)

====

target: human androgen receptor (Homo sapiens, UniProt P10275); construct: expressed in transfected cells; host or cells: CHO cells, cell line CHO-AR-pMMTV-LUC 1G12-A5-CA; experiment: cell-based; details: antiandrogenic activity, in the presence of 1 nM DHT; read-out: ant EC50
The entries below come with measured EC50 values attached.

(Q) # query: EC50 of entry N#Cc1ccc2c(Sc3ccccc3[N+](=O)[O-])cn(Cc3cc(F)cc(F)c3)c2c1 [Compound 26]
(A) > 10 µM

Further cases:
(Q) Given COc1ccc2c(Sc3ccccc3[N+](=O)[O-])cn(Cc3cc(F)ccc3C(F)(F)F)c2c1 [Compound 70] , state its recorded EC50.
(A) > 10 µM

(Q) Entry O=C(NCc1ccccc1)c1ccc2c(Sc3ccccc3[N+](=O)[O-])cn(Cc3cc(F)cc(F)c3)c2c1 [Compound 43] : reported EC50 = ?
(A) < 1 µM

(Q) Name the reported EC50 value associated with the compound O=[N+]([O-])c1ccccc1Sc1cn(Cc2cc(F)cc(F)c2)c2cc(Cl)ccc12 [Compound 25]
(A) > 10 µM

(Q) For the compound COc1ccc2c(Sc3ccccc3[N+](=O)[O-])cn(Cc3ccccc3Cl)c2c1 [Compound 3] , what EC50 is on record?
(A) > 10 µM

(Q) Record request: EC50 value, item COc1ccc2c(Sc3ccccc3[N+](=O)[O-])cn(CC3CCCCC3)c2c1 [Compound 89]
(A) < 0.005 µM

(Q) Can you share its EC50? I mean this compound: O=C(c1ccc2c(Sc3ccccc3[N+](=O)[O-])cn(Cc3cc(F)cc(F)c3)c2c1)N1CCOCC1 [Compound 28]
(A) > 10 µM

(Q) Look up EC50 for this compound: COc1ccc2c(Sc3ccccc3[N+](=O)[O-])cn(Cc3ccccc3F)c2c1 [Compound 5]
(A) > 10 µM

(Q) Would you kindly share the measured EC50 for Nc1ccc2c(Sc3ccccc3[N+](=O)[O-])cn(Cc3cc(F)cc(F)c3)c2c1 [Compound 57] ?
(A) > 10 µM

(Q) Which value of EC50 has been reported for COc1ccc2c(Sc3ccccc3[N+](=O)[O-])cn(Cc3c(C)noc3C)c2c1 [Compound 80] in the records?
(A) < 1 µM

(Q) Report EC50 for COc1ccc2c(Sc3ccccc3[N+](=O)[O-])cn(Cc3cccc(C)c3)c2c1 [Compound 73] please.
(A) > 10 µM

====

Quick list: Emax per entry.
Molecular target: human androgen receptor (Homo sapiens, UniProt P10275)
Construct: expressed in transfected cells; host or cells: CHO cells, cell line CHO-AR-pMMTV-LUC 1G12-A5-CA
Sequence (P10275 1-920): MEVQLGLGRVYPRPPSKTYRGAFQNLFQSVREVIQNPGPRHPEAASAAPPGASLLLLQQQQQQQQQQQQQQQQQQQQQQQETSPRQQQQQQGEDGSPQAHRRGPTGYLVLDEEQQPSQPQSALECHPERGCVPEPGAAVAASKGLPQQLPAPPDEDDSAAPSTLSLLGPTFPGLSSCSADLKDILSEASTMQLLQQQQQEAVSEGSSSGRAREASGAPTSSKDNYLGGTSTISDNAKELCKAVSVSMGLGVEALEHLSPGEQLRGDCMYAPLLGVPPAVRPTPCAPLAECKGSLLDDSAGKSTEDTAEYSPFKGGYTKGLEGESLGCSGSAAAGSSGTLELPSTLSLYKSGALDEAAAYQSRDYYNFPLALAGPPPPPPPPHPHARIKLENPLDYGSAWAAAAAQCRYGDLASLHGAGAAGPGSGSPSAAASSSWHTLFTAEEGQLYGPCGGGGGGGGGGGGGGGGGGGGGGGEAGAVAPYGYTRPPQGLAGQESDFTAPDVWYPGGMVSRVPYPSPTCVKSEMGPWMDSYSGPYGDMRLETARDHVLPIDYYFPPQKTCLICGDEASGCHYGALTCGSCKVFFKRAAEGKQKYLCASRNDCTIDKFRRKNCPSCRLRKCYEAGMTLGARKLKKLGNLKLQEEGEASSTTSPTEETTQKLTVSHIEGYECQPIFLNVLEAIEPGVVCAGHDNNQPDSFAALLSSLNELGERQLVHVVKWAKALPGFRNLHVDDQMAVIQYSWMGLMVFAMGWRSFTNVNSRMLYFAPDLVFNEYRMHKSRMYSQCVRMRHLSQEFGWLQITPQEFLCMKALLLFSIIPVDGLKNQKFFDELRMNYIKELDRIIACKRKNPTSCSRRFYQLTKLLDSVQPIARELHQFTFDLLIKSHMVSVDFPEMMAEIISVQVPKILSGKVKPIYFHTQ
Assay: androgenic activity (EC50, potency, efficacy), transactivation bioassay in CHO-AR-pMMTV-LUC cells in the presence of 0.1 μmol/l onapristone (Table 5)
Type: cell-based
Details: maximal intrinsic activity; activity in the presence of 100 nM DHT set at 1.00; CHO-AR-pMMTV-LUC cells; 0.1 μmol/l onapristone; read-out: ago efficacy

Field: example entries. Status: answers known.
(Q) Name the reported Emax value associated with the compound O=CNc1ccc2c(Sc3ccccc3[N+](=O)[O-])cn(Cc3cncnc3)c2c1 [Compound 118]
(A) 50 to 80%

(Q) Quick one: Emax of N#Cc1ccc2c(Sc3ccccc3[N+](=O)[O-])cn(Cc3ccccn3)c2c1 [Compound 119] ?
(A) > 80%

(Q) Recorded Emax of CCC(=O)Nc1ccc2c(Sc3ccccc3[N+](=O)[O-])cn(Cc3ccccn3)c2c1 [Compound 102] , please.
(A) 50 to 80%

Others:
(Q) Given the entry CNC(=O)c1ccc2c(Sc3ccccc3[N+](=O)[O-])cn(Cc3ccccn3)c2c1 [Compound 110] , report its measured Emax.
(A) 50 to 80%

====

Catalogue of pEC50 readings, one per entry.
target: human androgen receptor (Homo sapiens); construct: expressed in transfected cells; host or cells: CHO cells, cell line CHO-AR-pMMTV-LUC 1G12-A5-CA; assay: cell-based; conditions: antiandrogenic activity, in the presence of 1 nM DHT; read-out: ant EC50
pEC50: −log10 of the molar value.

Field: example entries. Status: answers known.
(Q) Which pEC50 value belongs to COc1ccc2c(Sc3ccccc3[N+](=O)[O-])cn(Cc3ccccc3)c2c1 ?
(A) < 5.00

(Q) Name the recorded pEC50 for CCN(CC)C(=O)c1ccc2c(Sc3ccccc3[N+](=O)[O-])cn(Cc3cc(F)cc(F)c3)c2c1 .
(A) > 6.00

(Q) Look up pEC50 for this compound: O=[N+]([O-])c1ccccc1Sc1cn(Cc2cc(F)cc(F)c2)c2ccc(F)cc12
(A) < 5.00

New cases:
(Q) // query pEC50 value for entry COc1ccc(Cn2cc(Sc3ccccc3[N+](=O)[O-])c3ccc(OC)cc32)cc1
(A) 5.00 to 6.00

====

target: human androgen receptor (Homo sapiens); construct: expressed in transfected cells; host or cells: CHO cells, cell line CHO-AR-pMMTV-LUC 1G12-A5-CA; assay: cell-based; details: antiandrogenic activity, in the presence of 1 nM DHT; read-out: ant EC50
pEC50: −log10 of the molar value.
Measurement Label: pEC50

(Q) So what does the record say about pEC50 for COc1ccc2c(Sc3ccccc3[N+](=O)[O-])cn(Cc3cc(F)cc(F)c3)c2c1 ?
(A) < 5.00

(Q) What value of measured pEC50 is listed for COc1ccc2c(Sc3ccccc3[N+](=O)[O-])cn(Cc3cc(F)ccc3F)c2c1 ?
(A) < 5.00

(Q) Record request: pEC50 value, item COc1ccc2c(Sc3ccccc3[N+](=O)[O-])cn(Cc3ccccn3)c2c1.Cl [Compound 10, monohydrochloride]
(A) < 5.00

(Q) I have this compound here, COc1ccc2c(Sc3ccccc3C(N)=O)cn(Cc3cc(F)cc(F)c3)c2c1 , and I need its recorded pEC50.
(A) 7.00 to 8.30

(Q) Fill blank: measured pEC50 of the compound CCNC(=O)c1ccc2c(Sc3ccccc3[N+](=O)[O-])cn(Cc3cc(F)cc(F)c3)c2c1 is ____.
(A) < 5.00

(Q) So what does the record say about pEC50 for O=[N+]([O-])c1ccccc1Sc1cn(Cc2cc(F)cc(F)c2)c2cc(C(F)(F)F)ccc12 ?
(A) < 5.00

(Q) Tell me the measured pEC50 of COc1ccc2c(Sc3ccccc3[N+](=O)[O-])cn(Cc3cccc([N+](=O)[O-])c3C)c2c1 , please.
(A) < 5.00

(Q) Consider the compound O=C(NCC1CC1)c1ccc2c(Sc3ccccc3[N+](=O)[O-])cn(Cc3cc(F)cc(F)c3)c2c1 and give its measured pEC50.
(A) < 5.00

Origin of values: patent US8124647B2
